Reported Activity values for the following compounds.
# tgt: Bombesin receptor subtype-3 (Mus musculus) (UniProt O54798)
# Sequence (O54798 whole entry): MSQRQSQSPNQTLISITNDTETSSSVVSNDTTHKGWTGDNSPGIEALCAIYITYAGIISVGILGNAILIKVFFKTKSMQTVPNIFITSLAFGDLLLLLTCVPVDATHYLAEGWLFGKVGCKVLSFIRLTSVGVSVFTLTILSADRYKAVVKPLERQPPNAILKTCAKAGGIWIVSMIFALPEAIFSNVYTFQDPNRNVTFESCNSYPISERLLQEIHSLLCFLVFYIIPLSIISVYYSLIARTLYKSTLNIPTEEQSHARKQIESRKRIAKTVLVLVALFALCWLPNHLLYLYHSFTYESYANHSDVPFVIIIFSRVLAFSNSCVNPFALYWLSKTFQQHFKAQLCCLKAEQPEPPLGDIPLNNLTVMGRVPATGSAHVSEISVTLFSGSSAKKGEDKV
# assay_name: Agonist activity at mouse BRS3 expressed in human HEK293AEQ cells measured for 10 mins by aequorin bioluminescence assay relative to dY-peptide
# Format: functional, cell-based
Dear colleague, please return just the value in %, with no unit written.

Consider the worked cases shown below.
{"columns": ["mol_smiles", "Activity, %"],
 "data": [
  ["CC(C)(C(N)=O)c1cccc2c1N(S(=O)(=O)c1ccc(OC(F)(F)F)cc1)Cc1ccc(C(F)(F)F)nc1N2", 98],
  ["NC(=O)C1(c2cccc3c2N(S(=O)(=O)c2ccc(OC(F)(F)F)cc2)Cc2ccc(C(F)(F)F)nc2N3)CCC1", 100],
  ["CC(C)(O)c1nc(C2(c3cccc4c3N(S(=O)(=O)c3ccc(OC(F)(F)F)cc3)Cc3ccc(C(F)(F)F)nc3N4)CCC2)no1", 99]
]}

Provide Activity, tested on Bombesin receptor subtype-3 (Mus musculus) (UniProt O54798), for CNC(=O)C1(c2cccc3c2N(S(=O)(=O)c2ccc(OC(F)(F)F)cc2)Cc2ccc(C(F)(F)F)nc2N3)CCC1 .
112

Provide Activity, tested on Bombesin receptor subtype-3 (Mus musculus) (UniProt O54798), for CC(C)(O)c1nc(C(C)(C)c2cccc3c2N(S(=O)(=O)c2ccc(OC(F)(F)F)cc2)Cc2ccc(C(F)(F)F)nc2N3)no1 .
105

----------
Reported pIC50 values for the following compounds.
# tgt: Bombesin receptor subtype-3 (Homo sapiens, UniProt P32247)
# Sequence (P32247 whole entry): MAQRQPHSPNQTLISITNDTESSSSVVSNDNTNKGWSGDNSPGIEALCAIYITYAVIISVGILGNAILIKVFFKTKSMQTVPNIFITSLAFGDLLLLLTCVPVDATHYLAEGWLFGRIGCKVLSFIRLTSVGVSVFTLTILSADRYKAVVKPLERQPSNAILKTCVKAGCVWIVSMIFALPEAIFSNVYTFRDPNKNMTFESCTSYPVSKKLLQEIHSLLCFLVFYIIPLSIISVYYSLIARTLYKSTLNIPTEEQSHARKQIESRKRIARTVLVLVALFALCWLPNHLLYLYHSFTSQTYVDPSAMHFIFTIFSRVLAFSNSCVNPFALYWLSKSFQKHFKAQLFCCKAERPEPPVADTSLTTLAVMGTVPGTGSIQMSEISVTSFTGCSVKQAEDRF
# assay_name: Displacement of 125I-dY-peptide from human BRS3 expressed in NFAT-CHO cells after 2 hrs by liquid scintillation counting
On this scale, pIC50 is minus log10 of a concentration expressed in M (mol/L).

Consider the worked cases shown below.
{"columns": ["mol_smiles", "reported_property", "experimental_result"],
 "data": [
  ["CC(C)(O)c1nc(-c2cccc3c2N(S(=O)(=O)c2ccc(OC(F)(F)F)cc2)Cc2ccc(C(F)(F)F)nc2N3)no1", "pIC50", 8.44],
  ["CC(C)(O)c1nc(C2(c3cccc4c3N(S(=O)(=O)c3ccc(OC(F)(F)F)cc3)Cc3ccc(C(F)(F)F)nc3N4)CCC2)no1", "pIC50", 9.22]
]}

Query pIC50 for CNC(=O)C1(c2cccc3c2N(S(=O)(=O)c2ccc(OC(F)(F)F)cc2)Cc2ccc(C(F)(F)F)nc2N3)CCC1
8.68

Query pIC50 for NC(=O)C1(c2cccc3c2N(S(=O)(=O)c2ccc(OC(F)(F)F)cc2)Cc2ccc(C(F)(F)F)nc2N3)CCC1
9.30

Query pIC50 for CC(C)(C(N)=O)c1cccc2c1N(S(=O)(=O)c1ccc(OC(F)(F)F)cc1)Cc1ccc(C(F)(F)F)nc1N2
9.30

Query pIC50 for CC(C)(O)c1nc(C(C)(C)c2cccc3c2N(S(=O)(=O)c2ccc(OC(F)(F)F)cc2)Cc2ccc(C(F)(F)F)nc2N3)no1
8.85

----------
Reported half-life values for the following molecules.
# assay_name: Half life of the compound in ethanol at 60 degC by CD spectroscopy
# Format: physicochemical

Consider the worked cases shown below.
{"columns": ["mol_smiles", "reported_property", "experimental_result"],
 "data": [
  ["CC(C)(O)c1nc(C(C)(C)c2cccc3c2N(S(=O)(=O)c2ccc(OC(F)(F)F)cc2)Cc2ccc(C(F)(F)F)nc2N3)no1", "half-life", "> 10.4 days"],
  ["NC(=O)C1(c2cccc3c2N(S(=O)(=O)c2ccc(OC(F)(F)F)cc2)Cc2ccc(C(F)(F)F)nc2N3)CCC1", "half-life", "> 10.4 days"],
  ["CC(C)(O)c1nc(-c2cccc3c2N(S(=O)(=O)c2ccc(OC(F)(F)F)cc2)Cc2ccc(C(F)(F)F)nc2N3)no1", "half-life", "0.0917 days"]
]}

Field: next molecule
Query half-life for CC(C)(O)c1nc(C2(c3cccc4c3N(S(=O)(=O)c3ccc(OC(F)(F)F)cc3)Cc3ccc(C(F)(F)F)nc3N4)CCC2)no1
> 10.4 days

----------
# assay_name: Plasma clearance in Sprague-Dawley rat at 0.5 mg/kg, iv
# Format: ADME, organism-based
# Set-up: dose 0.5 mg/kg, route intravenous
Reported clearance values for the following molecules.
Dear colleague, please return just the value in mL/min/kg, with no unit written.

Consider the worked cases shown below.
{"columns": ["mol_smiles", "clearance / mL/min/kg"],
 "data": [
  ["CC(C)(C(N)=O)c1cccc2c1N(S(=O)(=O)c1ccc(OC(F)(F)F)cc1)Cc1ccc(C(F)(F)F)nc1N2", 33],
  ["CNC(=O)C1(c2cccc3c2N(S(=O)(=O)c2ccc(OC(F)(F)F)cc2)Cc2ccc(C(F)(F)F)nc2N3)CCC1", 25],
  ["CC(C)(O)c1nc(C(C)(C)c2cccc3c2N(S(=O)(=O)c2ccc(OC(F)(F)F)cc2)Cc2ccc(C(F)(F)F)nc2N3)no1", 12],
  ["CC(C)(O)c1nc(C2(c3cccc4c3N(S(=O)(=O)c3ccc(OC(F)(F)F)cc3)Cc3ccc(C(F)(F)F)nc3N4)CCC2)no1", 21],
  ["NC(=O)C1(c2cccc3c2N(S(=O)(=O)c2ccc(OC(F)(F)F)cc2)Cc2ccc(C(F)(F)F)nc2N3)CCC1", 31]
]}

Field: next molecule
Query clearance for CC(C)(O)c1nc(-c2cccc3c2N(S(=O)(=O)c2ccc(OC(F)(F)F)cc2)Cc2ccc(C(F)(F)F)nc2N3)no1
16
